Form field: HT-29 IC50 (one value per entry).
- Test system: HT-29 (colon cancer cell)
- run_description: In vitro anti-tumor cellular activity (MTT), HT-29
- Format: cell-based
- condition_parameters: 72 hours
I only need the number, in µg/mL, no unit after it.

| compound | measurement_type | unit_abbrev | test_value |
| --- | --- | --- | --- |
| COc1cc2c(Oc3ccc(C=NNC(=O)Nc4cccc(Br)c4)cc3F)ccnc2cc1OCCCN1CCOCC1 | HT-29 IC50 | µg/mL | 1.3 |

Quick note, HT-29 IC50 for "COc1cc2c(Oc3ccc(C=NNC(=O)Nc4ccc(Cl)c(C(F)(F)F)c4)cc3F)ccnc2cc1OCCCN1CCCCC1" landed at 0.45

Record summary for "COc1cc2c(Oc3ccc(NC(=O)N/N=C/c4ccccc4)cc3F)ccnc2cc1OCCCN1CCOCC1" : reported HT-29 IC50 = 0.42

Record "COc1cc2c(Oc3ccc(NC(=O)N/N=C/c4ccccc4)cc3F)ccnc2cc1OCCCN1CCC(C)CC1" , field HT-29 IC50: 0.17

Record summary for "COc1cc2c(Oc3ccc(NC(=O)N/N=C/c4ccccc4)cc3F)ccnc2cc1OCCCN1CCCCC1" : reported HT-29 IC50 = 0.0088

The measured HT-29 IC50 associated with N.N.[Cl][Pt][Cl] [Cisplatin, reference compound] reads 1.0

# HT-29 IC50 of "COc1cc2c(Oc3ccc(NC(=O)N/N=C(\C)c4ccccc4)cc3F)ccnc2cc1OCCCN1CCCCC1" = 0.0057

HT-29 IC50 for "COc1cccc(/C=N/NC(=O)Nc2ccc(Oc3ccnc4cc(OCCCN5CCC(C)CC5)c(OC)cc34)c(F)c2)c1" is 0.0006

Where do these numbers come from? They come from patent US9783499B2.
